test system: PaCa2 (pancreatic) cancer cell line; assay: 2D-monolayer antiproliferation (MTT) against PaCa2; assay type: cell-based, human; conditions: IC50 of RPE1 normal cell/IC50 of PaCa2
Please note: Y applies when SI (selectivity index) PaCa2 is 2 or greater, and N applies otherwise.

Answered examples (3):
COMPOUND	CATEGORY
CCOP(=O)(OCC)N1C/C(=C\c2ccccc2)C(=O)C2(C1)C(c1ccccc1)CN(C)C21C(=O)Nc2ccc(Cl)cc21 (centres unmarked) [Compound 17c]	N
CCOP(=O)(OCC)N1C/C(=C\c2ccc(Cl)cc2)C(=O)C2(C1)C(c1ccc(Cl)cc1)CN(C)C21C(=O)Nc2ccc(C)cc21 (centres unmarked) [Compound 17k]	N
CCOP(=O)(OCC)N1C/C(=C\c2ccc(C)cc2)C(=O)C2(C1)C(c1ccc(C)cc1)CN(C)C21C(=O)Nc2ccc(Cl)cc21 (centres unmarked) [Compound 17o]	Y

Exam item: Check this compound for SI (selectivity index) PaCa2 at or above 2: CCOP(=O)(OCC)N1C/C(=C\c2cccs2)C(=O)C2(C1)C(c1cccs1)CN(C)C21C(=O)Nc2ccc(Cl)cc21 (centres unmarked) [Compound 17s]
Marked response: N

Exam item: Entry CCOP(=O)(OCC)N1C/C(=C\c2ccc(Cl)cc2)C(=O)C2(C1)C(c1ccc(Cl)cc1)CN(C)C21C(=O)Nc2ccc(F)cc21 (centres unmarked) [Compound 17i] : is its SI (selectivity index) PaCa2 no less than 2?
Marked response: Y

Exam item: Quick check: does CCOP(=O)(OCC)N1C/C(=C\c2ccc(OC)cc2)C(=O)C2(C1)C(c1ccc(OC)cc1)CN(C)C21C(=O)Nc2ccccc21 (centres unmarked) [Compound 17p] have SI (selectivity index) PaCa2 greater than or equal to 2?
Marked response: N

Exam item: Would you say CCOP(=O)(OCC)N1C/C(=C\c2cccs2)C(=O)C2(C1)C(c1cccs1)CN(C)C21C(=O)Nc2ccc(C)cc21 (centres unmarked) [Compound 17t] shows SI (selectivity index) PaCa2 at minimum 2?
Marked response: Y
